# EC50 listing for each entry below
STUDY_TARGET: T1, human CD22, endogenous on Raji cells (human, UniProt P20273 20-847)
T1 construct: whole, on cells; Endogenous protein of the Raji cell line
T1 sequence (looked up): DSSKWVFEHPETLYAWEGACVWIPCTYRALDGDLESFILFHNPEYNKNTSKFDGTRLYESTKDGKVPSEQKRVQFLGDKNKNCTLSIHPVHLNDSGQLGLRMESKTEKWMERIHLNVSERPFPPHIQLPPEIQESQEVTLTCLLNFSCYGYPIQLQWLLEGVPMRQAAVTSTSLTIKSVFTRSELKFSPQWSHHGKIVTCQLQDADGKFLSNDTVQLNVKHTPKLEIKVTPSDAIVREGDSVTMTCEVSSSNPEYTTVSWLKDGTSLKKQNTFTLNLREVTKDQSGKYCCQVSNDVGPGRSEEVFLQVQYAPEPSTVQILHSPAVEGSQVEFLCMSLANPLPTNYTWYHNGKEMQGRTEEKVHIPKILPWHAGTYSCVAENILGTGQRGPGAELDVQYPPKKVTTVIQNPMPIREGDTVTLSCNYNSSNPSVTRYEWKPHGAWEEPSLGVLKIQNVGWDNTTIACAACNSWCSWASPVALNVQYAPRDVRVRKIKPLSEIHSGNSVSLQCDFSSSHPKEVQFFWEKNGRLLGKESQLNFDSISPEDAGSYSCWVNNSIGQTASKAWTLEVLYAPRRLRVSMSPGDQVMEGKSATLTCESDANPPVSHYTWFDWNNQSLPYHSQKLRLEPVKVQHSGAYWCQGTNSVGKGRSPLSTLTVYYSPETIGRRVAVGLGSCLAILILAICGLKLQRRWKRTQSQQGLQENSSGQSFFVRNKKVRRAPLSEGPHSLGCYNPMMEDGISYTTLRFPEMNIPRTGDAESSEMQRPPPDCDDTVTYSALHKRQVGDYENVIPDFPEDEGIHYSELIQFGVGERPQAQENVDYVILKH
ASSAY_SUMMARY: FACS, Raji cells
METRIC: EC50 (pM)

{"columns": ["BINDER", "VALUE_MEASURED"],
 "data": [
  ["F2.55.1 human-murine chimeric antibody (antibody, human IgG1, lambda, V domains shown, Chimeric, human IgG1 / lambda; VL tied by name) VH: QVTLKESGPGILQPSQTLSLTCSFSGFSLSTFPLGVGWIRQPSGKGLEWLAHVWWNDDDYYNPALKSRLTISKDTSNTRVFLSVASVDTAETATYYCARLNWDRWYFDVWGTGTTVTVSS VL: QLVLTQSSSASFSLGASAKLTCTLSSQHSAYTVEWYQQQPLKPPKYVMELKKDGSHSTGDGIPDRFSGSSSGADRYLSISNIQPEDEAIYICGVGDTVKEQFVFGGGTKVTVLG", 410],
  ["F2.127.11 human-murine chimeric antibody (antibody, human IgG1, lambda, V domains shown, Chimeric, human IgG1 / lambda; VL tied by name) VH: QVTLKESGPGILQPSQTLSLTCSFSGFSLSTFGMGVGWIRQPSGKGLEWLAHIWWDDDKHYNPALKSRLTISKDTSRNQVFLKIANVDTADGATYFCARDNWVSSLDYWGQGTSVIVSS VL: QPVITQSSSASFSLGASAELTCTLSSQHSTYTIEWYQQQPLKPPKYVMGLKKDGSHSTGDGIPDRFSGSSSGADRYLSISNIQPEDEAIYICGVSDTIKEQFVYVFGGGTKVTVLG", 590],
  ["F2.121.9 human-murine chimeric antibody (antibody, human IgG1, lambda, V domains shown, Chimeric, human IgG1 / lambda) VH: EVQLVESGGGLVKPGGSLKLSCAASGFTFSDYVMSWIRQTPEKRLEWVATISDAGSYTFYPDNLKGRFTISRDNAKNNLYLQMNHLTSEDTAFYYCAIIYFGNYGGYWGQGTLVTVSV VL: QAVVTQESALTTSPGGTVVLTCRSNTGAVTTSNYANWVQEKPDHLFTGLIGGTSNRAPGVPVRFSGSLIGDKAALTITGAQTEDDAMYFCALWYSTHWVFGGGTKLTVLG", 860]
]}
